# Tested System: purified human FAS (Homo sapiens, UniProt P49327)
# Construct: Human FAS was purified from cultured ZR-75-1 human breast cancer cells; endogenous in cells; host or cells: ZR-75-1 human breast cancer cells (ATCC); endogenous enzyme purified by PEG precipitation and Mono Q chromatography
# Sequence (P49327 whole entry): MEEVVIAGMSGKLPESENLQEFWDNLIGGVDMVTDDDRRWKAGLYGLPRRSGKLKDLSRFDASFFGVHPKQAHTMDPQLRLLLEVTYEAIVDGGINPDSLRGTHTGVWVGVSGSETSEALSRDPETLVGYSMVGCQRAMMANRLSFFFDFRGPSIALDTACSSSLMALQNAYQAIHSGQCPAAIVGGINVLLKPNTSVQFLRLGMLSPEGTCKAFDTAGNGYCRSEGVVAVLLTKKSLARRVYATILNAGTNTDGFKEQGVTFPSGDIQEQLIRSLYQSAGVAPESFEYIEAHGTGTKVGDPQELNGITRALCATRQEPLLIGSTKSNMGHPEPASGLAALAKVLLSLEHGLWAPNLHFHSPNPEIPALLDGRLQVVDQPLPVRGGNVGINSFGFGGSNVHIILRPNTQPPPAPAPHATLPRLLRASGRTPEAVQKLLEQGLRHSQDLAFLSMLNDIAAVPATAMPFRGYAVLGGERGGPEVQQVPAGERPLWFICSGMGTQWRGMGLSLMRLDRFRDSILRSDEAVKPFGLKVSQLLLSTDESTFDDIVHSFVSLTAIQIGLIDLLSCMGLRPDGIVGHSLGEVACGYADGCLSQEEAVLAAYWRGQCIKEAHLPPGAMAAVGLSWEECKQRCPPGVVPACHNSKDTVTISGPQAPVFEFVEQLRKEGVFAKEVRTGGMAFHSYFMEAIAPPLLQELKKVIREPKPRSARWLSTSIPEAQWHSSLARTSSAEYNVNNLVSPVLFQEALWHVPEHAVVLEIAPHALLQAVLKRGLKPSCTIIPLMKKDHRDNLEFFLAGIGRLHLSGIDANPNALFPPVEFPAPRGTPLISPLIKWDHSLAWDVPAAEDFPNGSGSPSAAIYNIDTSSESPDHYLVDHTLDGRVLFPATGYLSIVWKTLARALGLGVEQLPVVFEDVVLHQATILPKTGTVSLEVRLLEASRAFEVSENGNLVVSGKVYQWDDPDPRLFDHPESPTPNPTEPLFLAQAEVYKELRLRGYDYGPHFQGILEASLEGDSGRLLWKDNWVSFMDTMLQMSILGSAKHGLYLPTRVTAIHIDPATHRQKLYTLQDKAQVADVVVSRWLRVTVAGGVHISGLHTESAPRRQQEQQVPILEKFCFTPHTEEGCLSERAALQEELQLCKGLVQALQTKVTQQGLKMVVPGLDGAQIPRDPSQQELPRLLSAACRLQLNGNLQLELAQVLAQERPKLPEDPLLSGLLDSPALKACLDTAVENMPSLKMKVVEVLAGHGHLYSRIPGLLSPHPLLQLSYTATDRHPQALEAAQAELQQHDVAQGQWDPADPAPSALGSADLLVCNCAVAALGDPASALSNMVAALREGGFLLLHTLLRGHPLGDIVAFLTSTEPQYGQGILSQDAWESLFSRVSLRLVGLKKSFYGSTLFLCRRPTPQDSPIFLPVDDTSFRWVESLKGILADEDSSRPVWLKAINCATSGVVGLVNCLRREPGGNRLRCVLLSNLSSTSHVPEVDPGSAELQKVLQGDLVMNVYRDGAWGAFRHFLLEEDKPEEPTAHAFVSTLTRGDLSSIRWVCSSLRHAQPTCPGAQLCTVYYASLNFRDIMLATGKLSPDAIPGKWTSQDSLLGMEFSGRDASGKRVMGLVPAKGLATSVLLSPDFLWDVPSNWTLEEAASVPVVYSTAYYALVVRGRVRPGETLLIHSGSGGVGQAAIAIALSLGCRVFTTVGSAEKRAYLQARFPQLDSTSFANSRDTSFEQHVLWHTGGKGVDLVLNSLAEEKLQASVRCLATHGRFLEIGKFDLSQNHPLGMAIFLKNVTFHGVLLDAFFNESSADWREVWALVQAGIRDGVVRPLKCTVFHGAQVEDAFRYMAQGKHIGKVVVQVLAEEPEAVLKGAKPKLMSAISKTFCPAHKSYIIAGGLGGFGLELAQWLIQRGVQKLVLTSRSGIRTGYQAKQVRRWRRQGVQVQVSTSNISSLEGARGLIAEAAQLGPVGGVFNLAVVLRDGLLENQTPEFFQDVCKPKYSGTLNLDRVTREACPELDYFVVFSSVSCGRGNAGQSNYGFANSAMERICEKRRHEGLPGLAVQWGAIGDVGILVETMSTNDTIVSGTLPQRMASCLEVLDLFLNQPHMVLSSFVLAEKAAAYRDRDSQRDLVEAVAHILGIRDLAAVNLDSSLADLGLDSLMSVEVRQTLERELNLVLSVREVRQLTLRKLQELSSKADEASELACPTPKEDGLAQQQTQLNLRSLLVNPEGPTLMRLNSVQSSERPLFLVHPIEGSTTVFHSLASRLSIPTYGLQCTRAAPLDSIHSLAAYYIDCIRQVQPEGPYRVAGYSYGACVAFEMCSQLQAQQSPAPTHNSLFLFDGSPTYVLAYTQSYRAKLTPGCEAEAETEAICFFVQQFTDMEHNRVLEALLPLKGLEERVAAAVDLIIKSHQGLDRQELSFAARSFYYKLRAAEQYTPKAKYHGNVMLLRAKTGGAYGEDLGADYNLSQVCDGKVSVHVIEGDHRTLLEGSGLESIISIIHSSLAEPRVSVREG
# Assay Summary: Measurement of FAS enzymatic activity (NADPH oxidation) and IC50
# Format: biochemical
# Measurement Conditions: purified human FAS from ZR-75-1 cells, malonyl-CoA dependent NADPH oxidation
Endpoint Label: FAS (IC50)

Before answering, review these 5 worked examples.
Compound | Test Result
C=C1C(=O)O[C@@H](CCCCCCCC)[C@@H]1C(=O)NCC(=O)O (racemic) | Neg
C=C1C(=O)O[C@@H](CCCCCCCC)[C@@H]1C(=O)NCCO (racemic) | Neg
C=CCNC(=O)[C@@H]1C(=C)C(=O)O[C@H]1CCCCCCCC (racemic) | Neg
C=C1C(=O)O[C@@H](CCCCCCCC)[C@@H]1C(=O)NCC(=O)OC (racemic) | Neg
C=CCNC(=O)[C@H]1[C@H](CCCCCCCC)OC(=O)[C@H]1C (racemic) | Neg

Entry under review: CCCCCCCCC1OC(=O)[C@H](C)[C@H]1C(=O)O (stereo partly shown) . Reported FAS (IC50)?
Neg

Now try CCCCCCCCC1OC(=O)[C@@H](C)[C@H]1C(=O)O (stereo partly shown) .
Neg

---

# System: Enterococcus faecalis (ATCC #29212)
# Assay Summary: Broth microdilution MIC
# Type: cell-based
# Measurement Conditions: Enterococcus faecalis, ATCC29212; Trypticase Soy Broth, 24 hours; read-out: EF/Tsoy (MIC)
Here, each record is paired with measured MIC data.
I'd appreciate it if you included the unit after the number.

Before answering, review these 5 worked examples.
Compound | Test Result
CCCCCCCCC1OC(=O)[C@H](C)[C@H]1C(=O)O (stereo partly drawn) | 94 µg/mL
C=C1C(=O)O[C@@H](CCCCCCCC)[C@@H]1C(=O)NCC(=O)O (racemic) | 215 µg/mL
C=CCNC(=O)C1=C(C)C(=O)O[C@H]1CCCCCCCC | 203 µg/mL
C=CCNC(=O)[C@@H]1C(=C)C(=O)O[C@H]1CCCC (racemic) | 67 µg/mL
C=C1C(=O)O[C@@H](CCCCCCCC)[C@@H]1C(=O)NCC(=O)OC (racemic) | 245 µg/mL

Entry under review: C=CCNC(=O)[C@@H]1C(=C)C(=O)O[C@H]1CCCCCCCC (racemic) . Reported MIC?
25 µg/mL

Now try C=C1C(=O)O[C@@H](CCCCCCCC)[C@@H]1C(=O)NCCO (racemic) .
77 µg/mL

Now try C=CCNC(=O)[C@@H]1C(=C)C(=O)O[C@H]1CCCCCC (racemic) .
38 µg/mL

Now try C=CCNC(=O)[C@H]1[C@H](CCCCCCCC)OC(=O)[C@H]1C (racemic) .
114 µg/mL

---

# Tested on: Staphylococcus aureus (ATCC #29213)
# Assay Summary: Broth microdilution MIC
# Assay type: cell-based
# Measurement Conditions: Staphylococcus aureus, ATCC29213; Trypticase Soy Broth, 24 hours; read-out: SA/Tsoy (MIC)
Endpoint Label: MIC (µg/mL)
Supply the numeric figure in µg/mL, leaving out any unit text.

Before answering, review these 4 worked examples.
Molecule | Test Result
C=C1C(=O)O[C@@H](CCCCCCCC)[C@@H]1C(=O)NCC(=O)OC (racemic) | 26
C=CCNC(=O)[C@@H]1C(=C)C(=O)O[C@H]1CCCCCC (racemic) | 47
C=CCNC(=O)[C@@H]1C(=C)C(=O)O[C@H]1CCCC (racemic) | 96
CCCCCCCCC1OC(=O)[C@H](C)[C@H]1C(=O)O (some centres unmarked) | 60

Note: attention shifts to another entry.
Entry under review: C=CCNC(=O)[C@H]1[C@H](CCCCCCCC)OC(=O)[C@@H]1C (racemic) . Reported MIC?
193

---

# Test system: Staphylococcus aureus (ATCC #29213)
# Assay Summary: Broth microdilution MIC
# Assay type: cell-based
# Measurement Conditions: Staphylococcus aureus, ATCC29213; Trypticase Soy Broth, 24 hours; read-out: SA/Tsoy (MIC)
Endpoint Label: MIC (µg/mL)
Supply the numeric figure in µg/mL, leaving out any unit text.

For the record C=CCNC(=O)[C@@H]1C(=C)C(=O)O[C@H]1CCCCCCCC (racemic) , what value of MIC is listed for Staphylococcus aureus (ATCC #29213)?
12

Now try "C=CCNC(=O)C1=C(C)C(=O)O[C@H]1CCCCCCCC" .
87

Now try C=C1C(=O)O[C@@H](CCCCCCCC)[C@@H]1C(=O)NCCO (racemic) .
48

Now try C=C1C(=O)O[C@@H](CCCCCCCC)[C@@H]1C(=O)NCC(=O)O (racemic) .
52

---

# Tested on: MCF-7 human breast cancer cells
# Assay Summary: [14C]acetate incorporation into total lipids (fatty acid synthesis in whole cells)
# Format: cell-based
# Measurement Conditions: Homo sapiens, MCF7, MCF-7 cells
Endpoint Label: IC50 (µg/mL)
Supply the numeric figure in µg/mL, leaving out any unit text.

Compound | Test Result
C=CCNC(=O)[C@@H]1C(=C)C(=O)O[C@H]1CCCCCC (racemic) | 3.3

Entry under review: C=C1C(=O)O[C@@H](CCCCCCCC)[C@@H]1C(=O)NCCO (racemic) . Reported IC50?
2.3

Now try C=CCNC(=O)[C@H]1[C@H](CCCCCCCC)OC(=O)[C@H]1C (racemic) .
25.7

Now try C=CCNC(=O)[C@@H]1C(=C)C(=O)O[C@H]1CCCC (racemic) .
1.8

Now try C=C1C(=O)O[C@@H](CCCCCCCC)[C@@H]1C(=O)NCC(=O)OC (racemic) .
1.1

Now try CCCCCCCCC1OC(=O)[C@@H](C)[C@H]1C(=O)O (stereo partly shown) .
31

Now try C=CCNC(=O)[C@@H]1C(=C)C(=O)O[C@H]1CCCCCCCC (racemic) .
0.75

---

# Tested System: purified human FAS (Homo sapiens, UniProt P49327)
# Construct: Human FAS was purified from cultured ZR-75-1 human breast cancer cells; endogenous in cells; endogenous enzyme purified by PEG precipitation and Mono Q chromatography
# Assay Summary: Measurement of FAS enzymatic activity (NADPH oxidation) and IC50
# Measurement Conditions: purified human FAS from ZR-75-1 cells, malonyl-CoA dependent NADPH oxidation
# Description: Human FAS was purified from cultured ZR-75-1 human breast cancer cells obtained from the American Type Culture Collection. […] FAS activity is measured by monitoring the malonyl-CoA dependent oxidation of NADPH spectrophotometrically at OD340 in 96-well plates (Dils et al and Arslanian et at, 1975). […] The assay is performed on a Molecular Devices SpectraMax Plus Spectrophotometer. […] The plate is read again as above with the kinetic protocol to measure the malonyl-CoA dependent NADPH oxidation. […]
Here, each record is paired with measured pIC50 data.
Please report pIC50 as the negative decimal logarithm of the molar concentration, giving only the number.

Before answering, review these 3 worked examples.
Molecule | Tested System | pIC50
C=CCNC(=O)[C@@H]1C(=C)C(=O)O[C@H]1CCCC (racemic) | purified human FAS (Homo sapiens, UniProt P49327) | 3.35
C=CCNC(=O)[C@H]1[C@H](CCCCCCCC)OC(=O)[C@@H]1C (racemic) | purified human FAS (Homo sapiens, UniProt P49327) | 3.35
C=CCNC(=O)C1=C(C)C(=O)O[C@H]1CCCCCCCC | purified human FAS (Homo sapiens, UniProt P49327) | 3.50

Note: attention shifts to another entry.
Entry under review: C=CCNC(=O)[C@@H]1C(=C)C(=O)O[C@H]1CCCCCC (racemic) . Reported pIC50?
3.52

---

# Tested on: Escherichia coli (ATCC #25922)
# Assay Summary: Broth microdilution MIC
# Format: cell-based
# Measurement Conditions: Escherichia coli, ATCC25922; Trypticase Soy Broth, 24 hours; read-out: Ecoli/Tsoy (MIC)
Here, each record is paired with measured MIC data.
Supply the numeric figure in µg/mL, leaving out any unit text.

Before answering, review these 3 worked examples.
Molecule | Endpoint Label | Test Result
C=CCNC(=O)[C@H]1[C@H](CCCCCCCC)OC(=O)[C@@H]1C (racemic) | MIC | 155
C=C1C(=O)O[C@@H](CCCCCCCC)[C@@H]1C(=O)NCC(=O)OC (racemic) | MIC | 275
C=C1C(=O)O[C@@H](CCCCCCCC)[C@@H]1C(=O)NCC(=O)O (racemic) | MIC | 235

Note: attention shifts to another entry.
For the record "C=CCNC(=O)C1=C(C)C(=O)O[C@H]1CCCCCCCC" , what value of MIC is listed for Escherichia coli (ATCC #25922)?
199

---

# Tested on: Enterococcus faecalis (ATCC #29212)
# Assay Summary: Broth microdilution MIC
# Assay type: cell-based
# Measurement Conditions: Enterococcus faecalis, ATCC29212; Mueller Hinton Broth, 24 hours; read-out: EF/MH (MIC)
Endpoint Label: MIC (µg/mL)
Supply the numeric figure in µg/mL, leaving out any unit text.

Molecule | MIC [µg/mL]
C=C1C(=O)O[C@@H](CCCCCCCC)[C@@H]1C(=O)NCC(=O)OC (racemic) | 80
C=CCNC(=O)[C@@H]1C(=C)C(=O)O[C@H]1CCCC (racemic) | 190
C=CCNC(=O)[C@H]1[C@H](CCCCCCCC)OC(=O)[C@H]1C (racemic) | 91

Entry under review: "C=CCNC(=O)C1=C(C)C(=O)O[C@H]1CCCCCCCC" . Reported MIC?
115

Now try C=CCNC(=O)[C@@H]1C(=C)C(=O)O[C@H]1CCCCCC (racemic) .
103

Now try C=CCNC(=O)[C@H]1[C@H](CCCCCCCC)OC(=O)[C@@H]1C (racemic) .
84

Every entry's value here was drawn from patent US20060241177A1.
